Literature-derived IC50 for UniProt P29375 follows.

[[record]]
compound = "O=C(O)c1ccnc(-n2nccc2OCc2ccc(C(F)(F)F)cc2)c1"
assay_metric = "IC50"
result = "< 100 nM"

[[record]]
compound = "Oc1nc(OC2CCCC2)nc2cnccc12"
assay_metric = "IC50"
result = "100 to 1000 nM"

[[record]]
compound = "COc1ccc(OCc2cc3nccc(C(=O)O)c3[nH]2)cc1"
assay_metric = "IC50"
result = "100 to 1000 nM"


Field request: IC50 | item: Clc1ccccc1Cn1cnc(-c2cc(-c3nn[nH]n3)ccn2)c1
100 to 1000 nM

Field request: IC50 | item: CCCC(=O)NC1CCN(C(=O)c2cc(C(C)C)n[nH]2)C1 (stereo not drawn)
0.15 nM

Field request: IC50 | item: COc1cc(I)ccc1COc1ccnn1-c1cc(C(=O)O)ccn1
< 100 nM

Field request: IC50 | item: CC(C)c1cc(C(=O)N2CCC(NC(=O)c3ccc4c(ccn4C)c3)C2)[nH]n1 (stereo not drawn)
0.08 nM

Field request: IC50 | item: CN(CCn1cnc(-c2cc(C(=O)O)ccn2)c1)c1ccc(Cl)cc1
≤ 100 nM

Field request: IC50 | item: Oc1nc(Oc2cnn(C3CCN(Cc4ccccc4)CC3)c2)nc2cnccc12
≤ 100 nM
